Where these numbers come from: PubChem BioAssay AID1745844

# TD50 listing for each entry below
# Tested on: rodent lifetime carcinogenesis bioassay, tumor incidence TD50
# experimentalDetails: carcinogenic potency in animals, long-term in vivo studies, CPDB compilation (AID 1745844)
# conditionNotes: rat; strain Charles River CD (Sprague-Dawley); females; in feed; site: liver; lesion: hepatocellular adenoma; dosed 104 weeks; study length 104 weeks
The source made the active and inactive calls. No rule for the calls is given here.

# compound, system, endpointResult
data = [
    ("OC(Cn1cncn1)(Cn1cncn1)c1ccc(F)cc1F", "rodent lifetime carcinogenesis bioassay, tumor incidence TD50", "298 mg/kg/day (inactive)"),
    ("NC(=O)OCC(COC(N)=O)c1ccccc1", "rodent lifetime carcinogenesis bioassay, tumor incidence TD50", "934 mg/kg/day"),
    ("COC(=O)C1=C(C)NC(C)=C(C(=O)OCCN2CCN(C(c3ccccc3)c3ccccc3)CC2)C1c1cccc([N+](=O)[O-])c1 (stereo not given)", "rodent lifetime carcinogenesis bioassay, tumor incidence TD50", "157 mg/kg/day (inactive)"),
    ("CCN(CC)C(=O)c1cccc(C)c1", "rodent lifetime carcinogenesis bioassay, tumor incidence TD50", "16700 mg/kg/day (inactive)"),
]

// next item, TD50 requested
Bench note, rodent lifetime carcinogenesis bioassay, tumor incidence TD50: entry O=P(OC(CCl)CCl)(OC(CCl)CCl)OC(CCl)CCl , its TD50 = 324 mg/kg/day
